- EXPERIMENTAL_PROTOCOL: HRP/luminol detection interference without ALR, dose response, artefact control for ALR inhibitor project, biochemical, luminescence, no ALR or DTT, cherry-pick (AID 540356)
- MEASUREMENT_SETUP: HRP/H2O2 luminol luminescence counterscreen; series mostly up to 10 µM
Out of some 2,500 compounds screened, about 360 (14%) were called active.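 Rule for the calls: active = signal-lowering compounds whose fitted half-maximal concentration AC50 is no higher than ten times their top tested concentration; inconclusive = flat curve with 30 to 70% inhibition, or poor fit; inactive = flat within 30%, signal increase, or AC50 above limit.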 Not all results are given here.
Returns: one label drawn from class 1 for active, class 0 for inactive

COc1ccc(C2CC(c3ccccc3)=NN2c2ccccc2)c(C(=O)O)c1OC (stereo not given) = class 0
Nc1ccc2nc[nH]c2c1 = class 0
Clc1ccc(/C=C/c2ncc3ccccn23)cc1 = class 0
CN(C)c1ccc(CNS(=O)(=O)c2ccc3c(c2)NC(=O)CS3)cc1 = class 0

Problem: What did this assay record as the result for CCN(CC)c1ccc(/C=N/NC(=O)CC(C)C)cc1 ?
Result: class 0

Problem: Please share the test call associated with CNC(=O)c1cc(Nc2nnc(-c3ccc(O)cc3)c3ccccc23)ccc1OC .
Result: class 0

Problem: Recorded test outcome, item O=C(CC1CCCC1)N1CCCC(Nc2ccc(F)cc2)C1 (stereo not given)
Result: class 0

Problem: Test call, this compound: Nc1ccc2nc(NC(=O)C3CCCCC3)sc2c1
Result: class 0

Problem: Record request — test call for Nc1cccc(C(=O)Nc2ccc3nc(-c4cccnc4)[nH]c3c2)c1
Result: class 0

Problem: Answer briefly: the call reported for Cn1c(C2CCCCC2)nc2cc(N)ccc21 in this assay.
Result: class 0

Problem: Recorded test call requested for Cc1ccc(CS(=O)Cc2ccc(C(=O)N3CCN(c4ccccc4)CC3)o2)cc1 (stereo not given)
Result: class 0

Problem: Name the outcome recorded for CC(C)(C)c1ccc(-c2nc3cc(N)ccc3o2)cc1 in the assay.
Result: class 0

Problem: Hey, what did the test say about CC(C)=NNc1nc(-c2ccc(N3C(=O)CCC3=O)cc2)cs1 ?
Result: class 1

Problem: // param item: CC(=O)Nc1ccc(-c2csc(NNC(=O)c3ccccc3)n2)cc1 ; yields the recorded call
Result: class 0

Problem: Please state the recorded outcome for this compound: O=C1CSC(=S)N1c1ccc(O)cc1
Result: class 0

Problem: Recorded call for COc1ccccc1N1CCN(C2CCCN(C(=O)CCc3c(C)noc3C)C2)CC1 (stereo not given) ?
Result: class 0

Problem: Assay outcome for Oc1ccccc1N1CCN(c2nnnn2-c2ccccc2)CC1 : what was it?
Result: class 0

Problem: # outcome recorded in this test, key = Cc1cccc(C2CN(C)CCc3c2cc(O)c(O)c3Cl)c1 (stereo not given)
Result: class 1

Problem: Check the results log: what was the call for Cc1cc(-c2nsc(=O)o2)c(S(C)(=O)=O)s1 ?
Result: class 0

Problem: Can you look up the reported call for O=C(Cc1ccc(Cl)cc1)N1CCN(c2ccccc2)CC1 for me?
Result: class 0

Problem: Per the records of this test, what outcome belongs to COc1ccc(N2CCN(CC(=O)Nc3ccc(C)c(C)c3)CC2)cc1 ?
Result: class 0
